Ref: patent US20140120095A1

The entries below are paired with their reported koff.
Target: T1, recombinant human DLL4 (C-terminally His-tagged extracellular domain, R&D Systems) (human, UniProt Q9NR61 25-522, biotinylated in the competition ELISA)
T1 construct: also called rhDLL4; hDLL4
T1 sequence (Q9NR61 25-522): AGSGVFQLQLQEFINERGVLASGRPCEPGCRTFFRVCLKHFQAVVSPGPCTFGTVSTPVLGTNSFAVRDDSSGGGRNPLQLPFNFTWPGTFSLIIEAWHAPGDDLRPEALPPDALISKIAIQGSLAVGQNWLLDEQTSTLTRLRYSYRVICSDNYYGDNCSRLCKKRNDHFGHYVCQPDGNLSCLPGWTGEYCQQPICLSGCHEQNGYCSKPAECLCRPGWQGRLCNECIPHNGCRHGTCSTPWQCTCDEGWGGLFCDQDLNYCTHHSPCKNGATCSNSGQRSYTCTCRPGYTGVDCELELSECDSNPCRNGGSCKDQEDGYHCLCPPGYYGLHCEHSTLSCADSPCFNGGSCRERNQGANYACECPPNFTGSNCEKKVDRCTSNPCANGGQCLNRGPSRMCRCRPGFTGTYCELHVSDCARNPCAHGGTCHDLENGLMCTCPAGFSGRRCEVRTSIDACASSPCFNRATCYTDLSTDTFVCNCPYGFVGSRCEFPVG
Assay: ProteOn off-rate screen, periplasmic extract, coated human DLL4
Procedure: In a first cycle, amino acid substitutions are introduced randomly in both framework (FW) and complementary determining regions (CDR) using the error-prone PCR method. […] No selections on murine DLL4 are included as (conservation of) cross-reactivity is assessed at the screening level. […] An average off-rate is calculated of the wild type clones present in the plate and served as a reference to calculate off-rate improvements.
Note: unit s⁻¹ is implicit; provide only the numeric part.

| Binder | Unit Descriptor | koff |
| --- | --- | --- |
| DLLBII130D06 (VHH) VHH: EVQLVESGGGLVQAGGSLRLSCSASGRTFSSYAMAWYRQAPGKEREYVAAIRWSGETAYYADSVQGRFTISRDNAKNTVYLQMNSLKPEDTAVYYCANRAPDTRLEPYLYDHWGQGTQVTVSS | s⁻¹ | 6.9e-05 |
| DLLBII130E03 (VHH) VHH: EVQLVESGGGLVQAGGSLRLSCAASGRTFSSYAMAWYRQAPGKEREYVAAIRWSGGTAYYADSVQGRFTISRDNAKNTVYLQMNSLKPEDTAVYYCANRAPDTRLEPYEYDHWGQGTQVTVSS | s⁻¹ | 7.5e-05 |
| DLLBII129H05 (VHH) VHH: EVQLVESGGGLVQAGGSLRLSCAASGRTFSSYAMAWYRLAPGKEREYVAAIRWSGGTAYYADSVQGRFTISRDNAKNTVYLQMNSLKPEDTAVYYCANRAPDTRLGPYLYDYWGQGTQVTVSS | s⁻¹ | 9.4e-05 |

Consider now this further binder.
Lab note: measured koff of DLLBII129G09 (VHH) VHH: EVQLVESGGGLVQAGGSLRLSCAASGRTFSSYAMAWYRQAPGKEREYVAAIRWSGETAYYADSVQGRFTISRDNAKNTVYLQMNSLKPEDTAVYYCANRAPDTRLEPYLYDHWGQGTQVTVSS was 8.8e-05
